Give inhibition rate on the stem growth of barnyard grass seeds for every item shown.
test system: barnyard grass seeds; assay: Petri dish seed germination method: inhibition of root and stem growth of barnyard grass; format: in vivo; conditions: 1.25 mmol/L, 96 hours incubation
Answers are plain numbers, in %.

These recorded examples may help you get a feel for the data.
CC1(NCc2ccco2)CCC(C(C)(C)NCc2ccco2)CC1 (centres unmarked) :: 19.3
CC1(N=Cc2ccc(F)cc2)CCC(C(C)(C)N=Cc2ccc(F)cc2)CC1 (centres unmarked) [reference compound] :: 23.9
CC(C)(N=Cc1ccc(Cl)cc1)[C@H]1CC[C@@](C)(N=Cc2ccc(Cl)cc2)CC1 [reference compound] :: 23.9
COc1ccc(CNC2(C)CCC(C(C)(C)NCc3ccc(OC)cc3)CC2)cc1 (centres unmarked) :: 70.6
CC1(NCc2cccnc2)CCC(C(C)(C)NCc2cccnc2)CC1 (centres unmarked) :: 44.6

Consider the following items and state reported inhibition rate on the stem growth of barnyard grass seeds for each.
1. COc1ccc(C=NC2(C)CCC(C(C)(C)N=Cc3ccc(OC)cc3)CC2)cc1 (centres unmarked) [reference compound]
2. CC(C)(NCc1ccccc1C(F)(F)F)[C@H]1CC[C@@](C)(NCc2ccccc2C(F)(F)F)CC1
3. Cc1ccc(CNC(C)(C)[C@H]2CC[C@@](C)(NCc3ccc(C)cc3)CC2)cc1

1: 4; 2: 59.6; 3: 74.7

Consider the following items and state reported inhibition rate on the stem growth of barnyard grass seeds for each.
1. CC1(N=Cc2ccccc2C(F)(F)F)CCC(C(C)(C)N=Cc2ccccc2C(F)(F)F)CC1 (centres unmarked) [reference compound]
2. CC(C)(N=Cc1ccc(Br)cc1)[C@H]1CC[C@@](C)(N=Cc2ccc(Br)cc2)CC1 [reference compound]
3. CC1(N=Cc2ccc(C(F)(F)F)cc2)CCC(C(C)(C)N=Cc2ccc(C(F)(F)F)cc2)CC1 (centres unmarked) [reference compound]
4. CC(C)(NCc1ccc(Br)cc1)[C@H]1CC[C@@](C)(NCc2ccc(Br)cc2)CC1
5. CC1(NCc2ccc(Cl)cc2)CCC(C(C)(C)NCc2ccc(Cl)cc2)CC1 (centres unmarked)
6. CC1(NCc2ccc(C(F)(F)F)cc2)CCC(C(C)(C)NCc2ccc(C(F)(F)F)cc2)CC1 (centres unmarked)

1: 17.7; 2: 42.3; 3: 14.6; 4: 58.5; 5: 63.4; 6: 67.0
